Data provenance: patent US20110201629A1

Assayed system: CRF-2 (UniProt Q13324)
Assay name: CRF-2 receptor antagonism, HTRF cAMP assay in CHO cells
Assay setup: Biological data Table 2; inhibition of CRF induced cAMP response in CHO cells, EC50 concentration of CRF
Assignment: determine reported IC50 for the given compounds.
Give your result as the value with the unit written after it.

Recorded IC50 for Cc1cc2c(cc1C)C(C)(F)C(=O)N2C[C@H]1CC[C@H](NC(=O)c2cc(Cl)cnc2C)CC1 (single isomer, unassigned; enantiomer 2) [Example 2.55] , please?
4530 nM

Recorded IC50 for COc1cccc2c1N(C[C@H]1CC[C@H](NC(=O)c3cc(C(F)(F)F)ccc3Cl)CC1)C(=O)C2(C)C , please?
1680 nM

Recorded IC50 for Cc1ncc(Cl)cc1C(=O)N[C@H]1CC[C@H](CN2C(=O)C(C)(C)c3cccc(Cl)c32)CC1 , please?
936 nM

Recorded IC50 for Cc1ncc(Cl)cc1C(=O)N[C@H]1CC[C@H](CN2C(=O)C3(CC3)c3cc(F)ccc32)CC1 , please?
811 nM

Recorded IC50 for Cc1ncc(Cl)cc1C(=O)N[C@H]1CC[C@H](CN2C(=O)C(F)(F)c3ccc(Cl)cc32)CC1 , please?
3120 nM

Recorded IC50 for Cc1cccc2c1N(C[C@H]1CC[C@H](NC(=O)c3cc(C(F)(F)F)ccc3Cl)CC1)C(=O)C2(C)C , please?
2140 nM

Recorded IC50 for CCn1c(=O)n(C[C@H]2CC[C@H](NC(=O)c3cc(C(F)(F)F)ccc3Cl)CC2)c2ccccc21 , please?
1950 nM
